Values were extracted from PubChem BioAssay (NCI).

# System: OVCAR-8 ovarian
# experiment notes: NCI-60 one-dose screen, 48 h (100 = growth as untreated, 0 = no growth, -100 = all killed)
# condition context: 10 µM unless noted
The panel holds about 83,000 compounds, 20% with a hit somewhere; the sample as a whole holds those more often.
Kind request: treat 70% as inclusive, so growth at 70% or higher is TRUE, anything lower is FALSE.

Please review the following examples before continuing.
Q: Would you say O=C(Nc1ccc(N2CCNCC2)cc1)c1[nH]ncc1Nc1ncnc2sc3c(c12)CCC3 shows growth at minimum 70%?
Ans: FALSE

Q: Then this compound: COc1ccc2occ(C3=C(c4c[nH]c5ccccc45)C(=O)NC3=O)c2c1
Ans: FALSE

Q: What would you report for Oc1ccc(-c2nc(-c3ccc4oc5ccc(-c6[nH]c(-c7ccc(O)cc7)nc6-c6ccccc6)cc5c4c3)c(-c3ccccc3)[nH]2)cc1 ?
Ans: TRUE

***
Q: Please check the record O=Cc1c(OCc2cnnn2CC(=O)Nc2ccc(Br)cc2)ccc2ccccc12 and state if its growth is at or above 70%.
Ans: TRUE

Q: Also need CCOc1cccc(/C=N/NC(=O)C(=O)Nc2cccc(C(F)(F)F)c2)c1O , thanks.
Ans: FALSE

Q: Same again, this time with COc1cc2nc(-c3cccc4cccnc34)nc(NC3CCN(Cc4ccccc4)CC3)c2cc1OC
Ans: FALSE

Q: C[n+]1c2ccccc2nc2ccc(NCCO)cc21 , same question.
Ans: TRUE

Q: Would you kindly repeat that for COc1ccc(-n2c(C(O)c3ccccc3)n[nH]c2=S)cc1 (stereo not given) ?
Ans: TRUE

Q: Likewise for CCCCCCc1cc2cc(-c3csc(/C=C/c4ccccc4)n3)c(=O)oc2cc1O ?
Ans: FALSE

Q: Check O=C(CN1C(=O)/C(=C\c2ccc(Cl)cc2)SC1=S)Nc1ncc(Cc2ccc(Cl)cc2)s1 too.
Ans: TRUE
